A collection of compounds and their measured TGI
system: PC-3 prostate; assay: NCI tumour cell line growth inhibition, 48 h

# example entries with known answers
1) COCN1CCN=c2c1c1c3c(c4ccccc4n23)CCC1 :: > 100 µM
2) Cc1[nH]c(C(=O)Nc2ccc(C(=O)N3CCNCC3)cc2OC(C)C)c(Cl)c1Cl :: 5.44 µM
3) O=[N+]([O-])c1cc(O)c(O)cc1-c1cn2ccsc2n1 :: > 100 µM
4) COc1ccc(C(=C(I)c2ccccc2)c2ccc(OC)cc2)cc1 :: > 100 µM
5) CN(C)C(=S)NN=C(c1ccccn1)c1ccccn1 :: > 43.8 µM
6) O=c1[nH]c2ccccc2nc1/C=C(\O)C(F)F :: > 100 µM
7) CCOC(=O)c1c2c(n3ccc(NC(=O)OC(C)(C)C)cc13)C(=O)c1ncccc1C2=O :: 2.05 µM
8) Cc1cc(N=Cc2c(CO)cnc(C)c2O)c(N=Cc2c(CO)cnc(C)c2O)cc1C.[Zn] :: > 100 µM
9) O=C1c2ccccc2-c2nccc3cc(Cl)nc1c23 :: > 100 µM
10) Cc1cc(=O)n2nc(CSc3nnc(N)s3)sc2n1 :: > 100 µM

Entry OCC(Cn1cncn1)(c1ccc(F)cc1F)n1cncn1 (stereo unspecified) : reported TGI = ?
> 100 µM

###

system: PC-3 prostate; assay: NCI tumour cell line growth inhibition, 48 h
The entries below come with measured GI50 values attached.

In the examples that follow, each entry is paired with its recorded GI50.
1) O=[N+]([O-])c1cc(O)c(O)cc1-c1cn2ccsc2n1 :: 63.4 µM
2) C=C1C(=O)O[C@H]2[C@H]1CC/C(CNS(=O)(=O)c1ccc3ccccc3c1)=C\CC[C@@]1(C)O[C@@H]21 :: 7.59 µM
3) OCCCCC#Cc1ccccc1C#Cc1ccccc1F :: 20 µM
4) CC1=C(C(=O)Nc2ccc3[nH]ncc3c2)C(c2ccc(F)cc2)NC(=O)N1 (stereo not drawn) :: > 25 µM
5) NC(=O)C(Br)CBr (stereo not drawn) :: 2.51 µM

Requested read-out: GI50. Entry: "Cc1ccc2c[c]1[Hg][CH2]COS2(=O)=O"
18.3 µM

Which GI50 is reported for this compound? O=CN1N=C(c2ccc(Nc3ccnc4cc(Cl)ccc34)cc2)CC1c1ccccc1 (stereo not drawn)
4.76 µM

If you can, please state the reported GI50 value of O=S1(=O)N(Cc2ccccc2)[C@@H](Cc2ccccc2)C2O[C@H]2[C@H](Cc2ccccc2)N1Cc1ccccc1 (stereo partly drawn) .
3.06 µM

###

tested on: IGROV1 ovarian; test: NCI tumour cell line growth inhibition, 48 h; in the data active = GI50 below about 0.43 µM; inactive = the rest
Choose one outcome from this list and give only that: true (active), false (inactive)

1. COc1ccc(-c2nsc3c2NC(=O)CC3c2ccc3c(c2)OCO3)cc1 (stereo unspecified) :: false
2. CCCCCCCCCCCCCCCC(=O)OCC1OC(n2cnc3c(=S)nc(N)[nH]c32)C(OC(=O)CCCCCCCCCCCCCCC)C1OC(=O)CCCCCCCCCCCCCCC (stereo unspecified) :: false
3. Nc1ccc(-c2nc3ccccc3[nH]2)c(O)c1 :: false
4. Nc1ccccc1NC(=O)CCCCCCC(=O)Nc1ccc2c(c1)/C(=C/c1ccc[nH]1)C(=O)N2 :: false
5. OCCCCC#Cc1ccccc1C#Cc1ccccc1F :: false

Turning now to a further record.
For this compound, state the assay outcome: "O=C1c2ccccc2-c2c1c1ccc([N+](=O)[O-])cc1c(=O)n2CCNCCCNCCn1c2c(c3ccc([N+](=O)[O-])cc3c1=O)C(=O)c1ccccc1-2"
true
